System: L1210 leukemia ip in BDF1 mice, survival T/C
Assay: NCI In Vivo Anticancer Drug Screen. Data for tumor model L1210 Leukemia (intraperitoneal) in B6D2F1 (BDF1) mice
Settings: endpoint: mean survival time; dose: 100.0 mg/kg/injection; schedule: Q04DX002 (ip); vehicle: saline; higher = longer survival
Method: The antitumor activity of compounds was measured in mice bearing transplantable tumors. Survival or tumor size were measured and the results are expressed as the measurement made in the treated group (T) divided by the measurement made in the vehicle treated control group (C). The tumor model used in this assay is L1210 Leukemia (intraperitoneal) in B6D2F1 (BDF1) mice
Inconclusive results and toxic doses are left out.
This section presents compounds with their documented T/C values.
metric: T/C

INSERT INTO measurements (compound, result) VALUES
  ('CC1NCCNCCNCCNC(C)c2cccc1n2 (stereo not given)', '89 % of control'),
  ('CCOC(=O)C(O)C(Cl)(c1ccccc1)C(C)C (stereo not given)', '100 % of control'),
  ('C/C=C/C=C/COC(=O)CCCCCCCC', '103 % of control'),
  ('Cc1cccc2c(=O)c(C(=O)O)cn(C)c12', '107 % of control'),
  ('O=C(O)/C=C/c1cnc[nH]1', '93 % of control');
